B1: Membrane-associated guanylate kinase, WW and PDZ domain-containing protein 1, residues 352 to 401; numbered along this chain, Q96QZ7 (parent)
chain: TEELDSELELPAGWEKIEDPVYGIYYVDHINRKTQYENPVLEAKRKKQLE

Variants of: B1
Assay procedure: abundance fitness (aPCA) (normalised: wild type 0, dead -1); higher = more abundant; growth selection in yeast, the domain comes from the species named
Measurement setup: Homo sapiens
Each entry gets false if its abundance fitness stays under -0.3, and true if its abundance fitness is -0.3 or above.

Below, 3 variants whose answers are already recorded.
I17W; false
Y36T; true
L4D; false

Attention now shifts to the item below.
Incoming: Evaluate `E37P` : abundance fitness at minimum -0.3?
Outgoing: false

Entry source: the Human Domainome abundance scans (Beltran et al. 2025)
